- subject-of-test: native soluble IL-6R in human plasma (human, UniProt P08887)
- experiment-notes: ELISA 3, periplasmic extract; competitor BN-12; human plasma
- Excerpt: In this ELISA, plasma was used as a source of native soluble IL-6R. By this assay, we aimed to confirm the alphascreen results and to get a view on the cross-reactivity of the clones towards cynomolgous IL-6R. […] Subsequently, plasma soluble IL-6R was captured on a B-N12 coated plate and bound IL-6 was detected using anti-IL-6 antibody BAF206 and streptavidin-HRP (ELISA 1 and ELISA 2). […]
property-name: OD450 ratio sample/blank

[in] Request the reported OD450 ratio sample/blank associated with IL6RPMP103A2 (VHH) VHH: EVQLVESGGGLVQPGGSLRLSCAASGSIFSINTMGWYRQVPGKQRELVATVRSGSITNYADSVQDQFTITRDIDENTVYLQMNSLKPEDTAVYYCLTRASVPGRGYQDYWGQGTQVTVSS
[out] 0.993

[in] Find the recorded OD450 ratio sample/blank belonging to IL6RPMP105C2 (VHH) VHH: EVQLVESGGGLVQAGGSLRLSCAASGSIFRINAMGWYRQAPGEQRELVAAAISGGSTNYADFVKGRFTISRDNAKNTVYLQMNSLKPEDTAVYYCNALVVSHNYSDYVPFPDDYWGQGTQVTVSS and report it.
[out] 0.996

[in] Name the reported OD450 ratio sample/blank value associated with the binder IL6RPMP103H9 (VHH) VHH: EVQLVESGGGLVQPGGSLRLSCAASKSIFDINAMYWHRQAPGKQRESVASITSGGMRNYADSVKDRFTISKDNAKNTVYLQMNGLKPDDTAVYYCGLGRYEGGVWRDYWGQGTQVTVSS
[out] 0.99

[in] Item under review: IL6RPMP101G3 (VHH) VHH: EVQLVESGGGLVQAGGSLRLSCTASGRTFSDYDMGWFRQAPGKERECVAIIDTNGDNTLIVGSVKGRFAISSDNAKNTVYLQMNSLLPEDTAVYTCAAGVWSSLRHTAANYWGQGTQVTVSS . Reported OD450 ratio sample/blank?
[out] 0.892
